Listing of entries alongside the reported EC50 improvement compared to ΔB7-H6 wt.
target: NKp30 on human NK cells (human) (UniProt O14931); experiment: cell-based or functional assay
Sequence (O14931 19-201): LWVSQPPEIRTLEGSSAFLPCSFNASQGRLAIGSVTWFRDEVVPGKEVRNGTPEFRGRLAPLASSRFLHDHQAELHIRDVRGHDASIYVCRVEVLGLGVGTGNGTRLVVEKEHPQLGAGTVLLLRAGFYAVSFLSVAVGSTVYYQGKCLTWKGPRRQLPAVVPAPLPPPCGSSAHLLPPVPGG
// return numeric value only (unit: fold, not printed)

| binder | readout name | obs value |
| --- | --- | --- |
| ΔB7-H6_S2#3-SEED-PGLALA (bispecific antibody, part only; not given: SEED Fc chains and hu225 Fab, part only) chain, part: DLKVEMMAGGTQITPLNDNVTIFCNIFYSQPLNITTMGITWFWKSLTFDKEVKVFEFWGDHQEAFRPGAIVSPWRLKSGDASLRLPGIQLEEAGEYRCEVVVTPLKAQGTVQLEVVASPAS | EC50 improvement compared to ΔB7-H6 wt | 5 |
| ΔB7-H6_S3#31-SEED-PGLALA (bispecific antibody, part only; not given: SEED Fc chains and hu225 EGFR Fab, part only) chain, part: DLKVEMMAGGTQITPLNDNVTIFCNIFYSQPLNITIMGITWFWKSLTFDKEVKVFEFYGDHQEAFRPGAIVSPWRLKSGDASLRLPGIQLEEAGEYRCEVVVTPLKAQGTVQLEVVASPAS | EC50 improvement compared to ΔB7-H6 wt | 50 |
| ΔB7-H6_S3#17-SEED-PGLALA (bispecific antibody, part only; not given: SEED Fc chains and hu225 EGFR Fab, part only) chain, part: DLKVEMMAGGTQITPLNDNVTIFCNIFYSQPLNITSMGITWFWKSLTFDKEVKVFEFYGDHQEAFRPGAIVSPWRLKSGDASLRLPGIQLEEAGEYRCEVFVTPLKAQGTVQLEVVASPAS | EC50 improvement compared to ΔB7-H6 wt | 2 |

Would you kindly look at the next entry?
Returns the measured EC50 improvement compared to ΔB7-H6 wt for the input binder. Input: ΔB7-H6_S2#7-SEED-PGLALA (bispecific antibody, part only; not given: SEED Fc chains and hu225 Fab, part only) chain, part: DLKVEMMAGGTQITPLNDNVTIFCNIFYSQPLNITSMGITWFWKSLTFDKEVKVFEFYGDHQEAFRPGAIVSPWRLKSGDASLRLPGIQLEEAGEYRCEVIVTPYKAQGTVQLEVVTSPAS
5
